# Tested on: HCT116 MTAP KO cells
# Experiment Description: Inhibitory activity against cell proliferation (CellTiter Glo, 6 days), HCT116 MTAP KO
# Format: cell-based
# Experimental Conditions: ratio of IC50 HCT116-WT / HCT116 MTAP KO
Checkbox rule: Selectivity HCT 116-WT/ HCT116 MTAP KO lower than 30 = satisfied; Selectivity HCT 116-WT/ HCT116 MTAP KO not lower than 30 = not satisfied.

{"Compound": "Cc1cc2cc(C(=O)N(Cc3cc4cccc(F)c4cn3)N(C)c3ncccn3)ccc2nc1N [Example 123]", "Qualitative Label": "satisfied"}
{"Compound": "Cc1ncc(-c2cnc(N3CC(C)CN3C(=O)c3cc4c(cc3C)nc(N)c3cnn(C)c34)c(F)c2)cn1 (centres unmarked) [Example 477]", "Qualitative Label": "not satisfied"}
{"Compound": "Cn1ncc2c(N)nc3cc(Cl)c(C(=O)N4CC(F)(F)CN4c4cccc(F)n4)cc3c21 [Example 462]", "Qualitative Label": "satisfied"}
{"Compound": "CN(c1ncccn1)N(Cc1ccc(C(F)(F)F)cn1)C(=O)c1ccc2nc(N)c(CO)cc2c1 [Example 325]", "Qualitative Label": "not satisfied"}
{"Compound": "Cc1cc2cc(C(=O)N(Cc3ccc(-c4scnc4C)cn3)N(C)c3ncccn3)ccc2nc1N [Example 235]", "Qualitative Label": "not satisfied"}
{"Compound": "Cc1cc2cc(C(=O)N(Cc3ccc(-c4ccn(C)c(=O)c4)cn3)N(C)c3ncccn3)ccc2nc1N [Example 209]", "Qualitative Label": "satisfied"}
{"Compound": "Cc1cc2cc(C(=O)N(Cc3ccc(C(F)(F)F)cn3)N(C)c3cccc(C(F)(F)F)n3)ccc2nc1N [Example 88]", "Qualitative Label": "satisfied"}

---

The reader will find reported IC50 values listed item by item below.
# Test System: UniProtKB O14744
# Sequence (O14744 whole entry): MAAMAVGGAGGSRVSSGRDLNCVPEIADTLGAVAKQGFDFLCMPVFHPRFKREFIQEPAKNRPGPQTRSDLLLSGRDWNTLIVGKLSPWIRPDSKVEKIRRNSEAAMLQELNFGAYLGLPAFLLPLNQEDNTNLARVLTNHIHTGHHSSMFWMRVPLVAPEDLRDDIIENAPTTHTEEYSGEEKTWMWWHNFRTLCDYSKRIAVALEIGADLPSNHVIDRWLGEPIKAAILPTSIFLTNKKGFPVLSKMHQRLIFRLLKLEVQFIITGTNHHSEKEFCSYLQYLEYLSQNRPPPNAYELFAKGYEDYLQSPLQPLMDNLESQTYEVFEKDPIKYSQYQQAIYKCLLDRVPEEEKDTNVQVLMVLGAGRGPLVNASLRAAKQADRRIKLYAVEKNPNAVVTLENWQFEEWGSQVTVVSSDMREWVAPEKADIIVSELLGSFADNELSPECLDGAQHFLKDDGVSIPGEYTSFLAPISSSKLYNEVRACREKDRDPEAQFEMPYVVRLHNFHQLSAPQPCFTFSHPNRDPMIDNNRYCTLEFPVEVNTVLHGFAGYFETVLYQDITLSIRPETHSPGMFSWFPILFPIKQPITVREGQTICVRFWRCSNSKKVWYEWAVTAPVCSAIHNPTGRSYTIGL
# Sequence (Q9BQA1 whole entry partner): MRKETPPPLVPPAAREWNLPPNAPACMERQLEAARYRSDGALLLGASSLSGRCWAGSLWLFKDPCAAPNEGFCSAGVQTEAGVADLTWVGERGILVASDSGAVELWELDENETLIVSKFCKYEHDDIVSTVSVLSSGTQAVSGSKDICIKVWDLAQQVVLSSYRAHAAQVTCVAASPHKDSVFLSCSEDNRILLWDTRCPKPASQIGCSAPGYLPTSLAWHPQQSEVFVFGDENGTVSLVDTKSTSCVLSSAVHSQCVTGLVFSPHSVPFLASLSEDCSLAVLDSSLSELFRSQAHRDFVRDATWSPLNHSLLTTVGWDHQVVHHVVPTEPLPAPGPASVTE
# Experiment Description: Enzymatic inhibitory activity against PRMT5-MTA (AlphaScreen)
# Format: biochemical
# Experimental Conditions: read-out: IC50

{"Molecule": "Cc1cc2cc(C(=O)N(Cc3ccc(-c4ccc(N5CCOCC5)nc4)cn3)N(C)c3ncccn3)ccc2nc1N", "IC50": "2 nM"}
{"Molecule": "Cc1cc2nc(N)c3cnn(C)c3c2cc1C(=O)N1CC(C(F)(F)F)CN1c1ncccc1F (stereo not shown)", "IC50": "3.5 nM"}
{"Molecule": "CC1CN(C(=O)c2cc3c(cc2Cl)nc(N)c2cnn(C)c23)N(c2ncccc2F)C1 (stereo not shown)", "IC50": "3.9 nM"}
{"Molecule": "Cc1cc2cc(C(=O)N(Cc3ccc(-c4ccnnc4)cn3)N(C)c3ncccn3)ccc2nc1N", "IC50": "1.2 nM"}
{"Molecule": "Cc1cc2cc(C(=O)N(Cc3ncc(Br)cc3F)N(C)c3ncccn3)ccc2nc1N", "IC50": "2.2 nM"}
{"Molecule": "Cc1cc2cc(C(=O)N(Cc3ccc(C(C)(C)O)cn3)N(C)c3ncccn3)ccc2nc1N", "IC50": "3.7 nM"}
{"Molecule": "Cc1cc2cc(C(=O)N(Cc3ccc(C(F)(F)F)cn3)N(C)c3nccc4nc(C)c(C)nc34)ccc2nc1N", "IC50": "2.6 nM"}
{"Molecule": "Cc1cc2nc(N)c3cnn(C)c3c2cc1C(=O)N1CC(C)CN1c1cccc(F)c1F (stereo not shown)", "IC50": "3.1 nM"}
{"Molecule": "CN(C(=O)c1cc2c(cc1F)nc(N)c1cnn(C)c12)N(C)c1ncc(C(F)(F)F)cc1F", "IC50": "3.5 nM"}
{"Molecule": "Cc1cc2cc(C(=O)N(Cc3ccc(C(F)(F)F)cn3)N(C)c3ncc4ccsc4n3)ccc2nc1N", "IC50": "2.1 nM"}
{"Molecule": "Cc1cc2nc(N)c3cnn(C)c3c2cc1C(=O)N1CC(CO)CN1c1ncccc1F (stereo not shown)", "IC50": "6.7 nM"}
{"Molecule": "Cc1cc2cc(C(=O)N(Cc3ccc4ccccc4n3)N(C)c3ncccn3)ccc2nc1N", "IC50": "1.7 nM"}
{"Molecule": "Cc1cc2cc(C(=O)N(Cc3ccc(-c4scnc4CF)cn3)N(C)c3ncccn3)ccc2nc1N", "IC50": "5.9 nM"}
{"Molecule": "Cc1cc2cc(C(=O)N(Cc3ccc(C(F)(F)F)cn3)n3ccc4cccnc43)ccc2nc1N", "IC50": "1.9 nM"}
{"Molecule": "Cc1cc2nc(N)c3cnn(C)c3c2cc1C(=O)N1CCCN1c1ccc(F)cn1", "IC50": "4.7 nM"}
{"Molecule": "COCc1ncsc1-c1ccc(CN(C(=O)c2ccc3nc(N)c(C)cc3c2)N(C)c2ncccn2)nc1", "IC50": "5 nM"}
{"Molecule": "Cc1ncsc1-c1ccc(CN(C(=O)c2ccc3nc(N)c(Br)cc3c2)N(c2ncccn2)C2CC2)nc1", "IC50": "5.2 nM"}
{"Molecule": "Nc1nc2ccc(C(=O)N(Cc3ccc(C(F)(F)F)cn3)N(c3ncccn3)C3CC3)cc2cc1CF", "IC50": "7.1 nM"}
{"Molecule": "Cc1cc2cc(C(=O)N(Cc3ccc(C(F)(F)F)cn3)N(C)c3nccc4ncccc34)ccc2nc1N", "IC50": "1.9 nM"}
{"Molecule": "CCc1ncsc1-c1ccc(CN(C(=O)c2ccc3nc(N)c(C)cc3c2)N(C)c2ncccn2)nc1", "IC50": "7.3 nM"}
{"Molecule": "Cc1cc2nc(N)c3cnn(C)c3c2cc1C(=O)N1CC(C)CN1c1ncccc1C(F)(F)F (stereo not shown)", "IC50": "6.2 nM"}
{"Molecule": "Cc1cc2cc(C(=O)N(Cc3ccc(N4CC(F)(F)C4)cn3)N(C)c3ncccn3)ccc2nc1N", "IC50": "16 nM"}
{"Molecule": "CN(c1ccc(C(F)(F)F)cn1)N(CC(F)(F)F)C(=O)c1ccc2nc(N)c3c(c2c1)COC3", "IC50": "15.8 nM"}
{"Molecule": "[2H]C([2H])([2H])N(c1ncccn1)N(Cc1ccc(Br)cn1)C(=O)c1ccc2nc(N)c(C)cc2c1", "IC50": "1.7 nM"}
{"Molecule": "CN(c1ncccn1)N(Cc1ccc(C(F)(F)F)cn1)C(=O)c1ccc2nc(N)cc(C3CC3)c2c1", "IC50": "1.6 nM"}
{"Molecule": "Cc1cc2cc(C(=O)N(Cc3ccc(C(F)(F)F)cn3)N(C)c3nccc4cnn(C)c34)ccc2nc1N", "IC50": "2.9 nM"}
{"Molecule": "Cc1cc2cc(C(=O)N(Cc3cc(C(F)(F)F)ccn3)N(C)c3ncccn3)ccc2nc1N", "IC50": "2.4 nM"}
{"Molecule": "Cc1cc2cc(C(=O)N(Cc3ccc(-c4scnc4C4CC4)cn3)N(c3ncccn3)C3CC3)ccc2nc1N", "IC50": "3.9 nM"}
{"Molecule": "[2H]C([2H])([2H])N(c1nccc2nccnc12)N(Cc1ccc(Br)cn1)C(=O)c1ccc2nc(N)c(C)cc2c1", "IC50": "3.2 nM"}
{"Molecule": "Cc1cc2nc(N)c3cnn(C)c3c2cc1C(=O)N1CC(C)CN1c1ccccn1 (stereo not shown)", "IC50": "4.7 nM"}
{"Molecule": "[2H]C([2H])([2H])N(c1nccc2nccnc12)N(Cc1ccc(C(F)(F)F)cn1)C(=O)c1ccc2nc(N)c(C)cc2c1", "IC50": "5.1 nM"}
